Reference source: the supplement of paper PMC7021759

test system: SK-N-MM (SKNMM-MYCN, doxycycline-inducible MYCN); assay: area under dose-response curve (CellTiter-Glo viability normalised to plate controls) (AUC (arbitrary units)); higher = more loss of viability; extreme values may be limits of the assay; conditions: MYCN induction (doxycycline): +doxycycline (MYCN induced); time after drugging: 3 days
Catalogue of area under dose-response curve readings, one per entry.

compound	area under dose-response curve
Cc1cc(C2CCCCC2)n(O)c(=O)c1	0
COc1cc2c(cc1-c1c(C)noc1C)ncc1[nH]c(=O)n([C@H](C)c3ccccn3)c12	10.5
CC(=O)O[C@@H](C)/C=C\C(=O)N[C@@H]1C[C@H](C)[C@H](C/C=C(C)/C=C/[C@H]2O[C@](C)(O)C[C@@]3(CO3)[C@@H]2O)O[C@@H]1C	13.5
COc1cc([C@@H]2c3cc4c(cc3[C@@H](O[C@@H]3O[C@@H]5CO[C@@H](C)O[C@H]5[C@H](O)[C@H]3O)[C@H]3COC(=O)[C@H]23)OCO4)cc(OC)c1O [ETOPOSIDE]	42.1
CCC1(c2ccc(N)cc2)CCC(=O)NC1=O (stereo not drawn) [AMINOGLUTETHIMIDE]	0
COc1cc(NCc2ccc3nc(N)nc(N)c3c2C)cc(OC)c1OC [TRIMETREXATE]	27.5
CC(=O)c1ccc2c(c1)c1cc(C(C)=O)ccc1n2CCNC(C)C	116
CC(C)n1c(/C=C/C(O)CC(O)CC(=O)O)c(-c2ccc(F)cc2)c2ccccc21 (stereo not drawn)	2.15
